Each recorded value in this set is attributed to PubChem BioAssay AID179.

- Test system: CEM cells HIV-1 protection, formazan growth assay
- assay.procedure: NCI AIDS Antiviral Assay
- measurement.context: measured here: growth of uninfected CEM cells
- Procedure: The ability of compounds to protect human CEM cells from HIV-1 infection is measured as a screen for new compounds capable of inhibiting the HIV virus. Five concentrations of drug were tested on uninfected and infected cells and cell growth was measured using a soluble formazan assay. […] Compounds that provided at least 50% protection were retested. Compounds that provided at least 50% protection on retest were listed as moderately active. […]
measured.attribute: IC50

If you can, please state the reported IC50 value of COC(=O)C12C3C4(C(=O)OC)C1C1(C(=O)OC)C2C3(C(=O)OC)C41C(=O)N(C(C)C)C(C)C (stereo not given) .
> 200 µM

If you can, please state the reported IC50 value of O=C1c2ccccc2C(=O)c2c(S)cccc21 .
> 200 µM

If you can, please state the reported IC50 value of O=C(O)/C=C\CCCCCCCCC(=O)O .
> 794 µM

If you can, please state the reported IC50 value of C[N+]1([O-])[C@H]2CC(OC(=O)[C@H](CO)c3ccccc3)C[C@H]1[C@H]1O[C@H]12 (stereo not given in full) .
> 200 µM

If you can, please state the reported IC50 value of O=C1NNC(=O)C2C3C=CC(O3)C12 (stereo not given) .
> 200 µM
